Biological target: Neuraminidase (Influenza A virus (A/Puerto Rico/8/1934(H1N1)), UniProt P03468)
Sequence (P03468 whole entry): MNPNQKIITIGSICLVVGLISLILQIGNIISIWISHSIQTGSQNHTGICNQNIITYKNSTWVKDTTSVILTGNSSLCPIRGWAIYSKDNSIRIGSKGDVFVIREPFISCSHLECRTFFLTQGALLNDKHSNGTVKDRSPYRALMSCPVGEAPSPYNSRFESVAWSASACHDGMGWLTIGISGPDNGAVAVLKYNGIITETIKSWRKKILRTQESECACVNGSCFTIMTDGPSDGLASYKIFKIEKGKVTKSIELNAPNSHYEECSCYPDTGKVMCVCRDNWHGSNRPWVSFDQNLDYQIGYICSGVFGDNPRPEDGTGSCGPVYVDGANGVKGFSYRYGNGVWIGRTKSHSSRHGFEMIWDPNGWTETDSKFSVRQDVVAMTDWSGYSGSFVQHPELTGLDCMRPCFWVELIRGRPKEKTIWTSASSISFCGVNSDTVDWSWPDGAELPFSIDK
Assay: Inhibition of neuraminidase in Influenza A
Format: functional
Readout: IC50 (nM)
Give the value in nM but do not write nM after it.

Use the examples below as a reference point.
CC(=O)N[C@H]1[C@H](N2C3CCCC2CC3)C=C(C(=O)O)C[C@@H]1N :: 32
CC(=O)N[C@H]1[C@H](N2CCC2)C=C(C(=O)O)C[C@@H]1N :: 1000
CCC1CCN([C@@H]2C=C(C(=O)O)C[C@H](N)[C@H]2NC(C)=O)CC1 :: 52

Q: Which IC50 reading was recorded for the molecule CC(=O)N[C@H]1[C@H](N2CCCCCC2)C=C(C(=O)O)C[C@@H]1N ?
A: 35

====

pIC50 values by entry
Molecular target: Neuraminidase (Influenza A virus (A/Puerto Rico/8/1934(H1N1)), UniProt P03468)
Assay: Inhibition of neuraminidase in Influenza A
To interpret pIC50, take it as minus log10 of a concentration measured in moles per litre.

CC(=O)N[C@H]1[C@H](N2CCC(C)CC2)C=C(C(=O)O)C[C@@H]1N :: 7.29
CC(=O)N[C@H]1[C@H](N2CCCCCCCC2)C=C(C(=O)O)C[C@@H]1N :: 7.12
CCCC1CCN([C@@H]2C=C(C(=O)O)C[C@H](N)[C@H]2NC(C)=O)CC1 :: 7.40
CC(=O)N[C@H]1[C@H](N2CCCCCCC2)C=C(C(=O)O)C[C@@H]1N :: 7.59

// below: pIC50 requested for another compound
Q: Which pIC50 reading was recorded for the compound CC(=O)N[C@H]1[C@H](N2CCCCC2)C=C(C(=O)O)C[C@@H]1N ?
A: 7.60
